Measured Alkaline Phosphatase Increase - Index Value of individual entries
- Test system: Hepatotoxicity
- EXPERIMENT_DESCRIPTION: FDA HLAED, alkaline phosphatase increase
- MEASUREMENT_CONTEXT: human

{"SMILES_STRUCTURE": "CCCCC[C@H](O)/C=C/[C@H]1[C@H](O)CC(=O)[C@@H]1CCCCCCC(=O)O", "RESULT": 0}
{"SMILES_STRUCTURE": "CN(C)C(=N)N=C(N)N", "RESULT": 0}
{"SMILES_STRUCTURE": "C[C@H](CCC(=O)O)[C@H]1CC[C@H]2[C@@H]3[C@H](O)C[C@@H]4C[C@H](O)CC[C@]4(C)[C@H]3CC[C@]12C", "RESULT": 0}

Continue with the next molecule.
Memo: "CC[C@H](C)C(=O)O[C@H]1C[C@H](O)C=C2C=C[C@H](C)[C@H](CC[C@@H](O)C[C@@H](O)CC(=O)O)[C@H]21" , reported Alkaline Phosphatase Increase - Index Value: 4.5

###

- Tested on: Hepatotoxicity
- EXPERIMENT_DESCRIPTION: FDA HLAED, serum glutamic pyruvic transaminase (SGPT) increase
- MEASUREMENT_CONTEXT: human
REPORTED_PROPERTY: SGPT Increase - Activity Score

Example entries begin here.
{"COMPOUND": "CO/N=C(\\C(=O)N[C@@H]1C(=O)N2C(C(=O)O)=CCS[C@H]12)c1csc(N)n1", "TESTED_ON": "Hepatotoxicity", "SGPT Increase - Activity Score": "Active"}
{"COMPOUND": "C[C@]12CC[C@@H]3c4ccc(O)cc4CC[C@H]3[C@@H]1CC[C@@H]2O", "TESTED_ON": "Hepatotoxicity", "SGPT Increase - Activity Score": "Inactive"}
{"COMPOUND": "Cc1cccc(Nc2ccccc2C(=O)O)c1C", "TESTED_ON": "Hepatotoxicity", "SGPT Increase - Activity Score": "Active"}
{"COMPOUND": "CC(=O)O[C@H]1C[C@@H]2CC[C@@H]3[C@H](CC[C@@]4(C)[C@H]3C[C@H](N3CC[N+](C)(C)CC3)[C@@H]4OC(C)=O)[C@@]2(C)C[C@@H]1N1CC[N+](C)(C)CC1.[Br-].[Br-] [PIPECURONIUM BROMIDE]", "TESTED_ON": "Hepatotoxicity", "SGPT Increase - Activity Score": "Inactive"}

Memo: "O=C(O)c1cn(C2CC2)c2cc(N3CCNCC3)c(F)cc2c1=O" , reported SGPT Increase - Activity Score: Inactive

Memo: "CN1C(C(=O)Nc2ccccn2)=C(O)c2ccccc2S1(=O)=O" , reported SGPT Increase - Activity Score: Inactive

###

- System: Hepatotoxicity
- EXPERIMENT_DESCRIPTION: FDA HLAED, serum glutamic pyruvic transaminase (SGPT) increase
- MEASUREMENT_CONTEXT: human
REPORTED_PROPERTY: SGPT Increase - Number of Reports

Example entries begin here.
{"COMPOUND": "C[C@H](O)C(=O)Nc1c(I)c(C(=O)NC(CO)CO)c(I)c(C(=O)NC(CO)CO)c1I", "SGPT Increase - Number of Reports": "< 4"}
{"COMPOUND": "CCc1cccc2c3c([nH]c12)C(CC)(CC(=O)O)OCC3 (stereo unspecified)", "SGPT Increase - Number of Reports": ">= 4"}
{"COMPOUND": "CC(C)n1c(/C=C/C(O)CC(O)CC(=O)O)c(-c2ccc(F)cc2)c2ccccc21 (stereo unspecified)", "SGPT Increase - Number of Reports": ">= 4"}
{"COMPOUND": "CC[C@H]1OC(=O)[C@H](C)[C@@H](O[C@H]2C[C@@](C)(OC)[C@@H](O)[C@H](C)O2)[C@H](C)[C@@H](O[C@@H]2O[C@H](C)C[C@H](N(C)C)[C@H]2O)[C@](C)(O)C[C@@H](C)CN(C)[C@H](C)[C@@H](O)[C@]1(C)O", "SGPT Increase - Number of Reports": ">= 4"}
{"COMPOUND": "CC1=C(CC(=O)O)c2cc(F)ccc2/C1=C\\c1ccc([S+](C)[O-])cc1 (stereo unspecified)", "SGPT Increase - Number of Reports": "< 4"}

Continue with the next compound.
Memo: "Cc1ccc(Cl)c(Nc2ccccc2C(=O)O)c1Cl" , reported SGPT Increase - Number of Reports: < 4

Values compiled from ChEMBL document CHEMBL1697781.
